System: SF-268
Assay: NCI tumour cell line growth inhibition, 48 h
Active and inactive are the calls of the source. Rule as the data show it: active = GI50 up to about 1.1 µM and inactive = higher.
readout label: GI50

Input: Please look up its GI50: COc1cc(S(=O)(=O)Nc2ccc(-c3csc(N)n3)cc2)ccc1Cl
Output: 34.4 µM (inactive)

Input: Next record, please: Cc1cccc(N2C(=O)C3ON(C(C(N)=O)c4ccccc4)C(c4c5ccccc5c(Cl)c5ccccc45)C3C2=O)c1C (centres undefined)
Output: 9.59 µM (inactive)

Input: Same thing, different compound: O=C1c2ccccc2C(=O)[C@@]23O[C@@]12C1(Oc2cccc4cccc(c24)O1)[C@@H]1O[C@@H]1[C@@H]3O
Output: 9.68 µM (inactive)

Input: And for CCCCCCCCCCCC[C@@H](O)[C@H]1CCC([C@H](O)CCCCC(=O)CCCCCCCC2=C[C@H](C)OC2=O)O1 (some centres undefined) ?
Output: 18.1 µM (inactive)

====

Task for the reader: assign each of the following compounds its reported GI50.
Test system: HCT-116
Experiment: NCI tumour cell line growth inhibition, 48 h
Active and inactive are the calls of the source. Cut-off read from the data, not from the text of the source: active = GI50 up to about 1.1 µM and inactive = higher.

Input: API: value(readout= GI50, system= HCT-116, query= C=C1CC[C@@H](C)[C@](C)(CCc2ccoc2)C/C=C\C=C/1C(=O)O )
Output: 21.8 µM (inactive)

Input: Also, CCC(=O)N1NC(=O)C(CC)(CC)C1=O please.
Output: > 100 µM (inactive)

Input: Moving on to CC(C)(C)OC(=O)N1C(=O)OC[C@@H]2C=C[C@@H]21
Output: > 100 µM (inactive)

Input: Same question, O=S(=O)(O)c1ccc2c(/N=N/c3ccc(Cl)cc3)c(O)ccc2c1 this time
Output: > 100 µM (inactive)

Input: What do you get for CC(=O)C1C(=O)NC(=O)C1=O (stereo not given) ?
Output: > 100 µM (inactive)

====

Tested on: DMS-273
Experiment: NCI tumour cell line growth inhibition, 48 h
The source made the active and inactive calls. Rule as the data show it: active = GI50 up to about 1.1 µM and inactive = higher.
Give GI50 for every item shown.

Input: Return reported GI50; argument: Cc1ccc([N+](=O)[O-])cc1NC(=O)c1cccc([N+](=O)[O-])c1O
Output: 11.9 µM (inactive)

Input: What would you report for NS(=O)(=O)c1ccc(NC(=O)COC(=O)c2cccc3c(=O)c4ccccc4[nH]c23)cc1 ?
Output: 37.2 µM (inactive)

Input: What do you have for Nc1nc(-c2ccccc2)cc(-c2cc(Cl)ccc2O)n1 ?
Output: 44.7 µM (inactive)

Input: Then Cc1ccc(C)c(N2C(=O)C(=O)C(c3nc4ccccc4o3)C(=O)C2=O)c1 ?
Output: > 100 µM (inactive)

Input: Further, for COC(=O)CCC1CCc2c(OC)ccc(O)c2C1=O (centres undefined) ?
Output: > 100 µM (inactive)

Input: Let us now turn to Cn1c2c(c3ccccc31)C1C(=O)N(c3ccccc3)C(=O)C1CC2 (centres undefined)
Output: > 303 µM (inactive)

Input: Continue with CC1CCc2c(sc3ncnc(N/N=C/c4ccc(Cl)cc4)c23)C1 (centres undefined)
Output: 37.4 µM (inactive)

Input: Please do the same for CCOc1ccc(/N=N/c2c(-c3ccccc3)nn(C(=O)CC(=O)Nc3cccc(C)c3)c2-c2ccccc2)cc1 as well.
Output: > 100 µM (inactive)

Input: And the next one, O=C(O)Cc1cc(=O)[nH]c2c1C(=O)CCC2 ?
Output: > 100 µM (inactive)

Input: Another compound to look at: COc1cccc(NC(=O)C(C)(C)C)c1SSc1c(NC(=O)C(C)(C)C)cccc1OC
Output: 96.8 µM (inactive)

Input: Request: CN(C)CCNC(=O)c1cccc2c1C(=O)c1ccccc1C2=O
Output: 23.7 µM (inactive)

Input: Thanks! And CCOC(=O)CCc1c(C)c2c(OC(C)=O)cc(OC(C)=O)cc2oc1=O ?
Output: 35 µM (inactive)

Input: Another compound: CC1=NN(C(=O)c2cc(Cl)cc([N+](=O)[O-])c2)C(=O)C1/N=N/c1ccccc1C(=O)O (centres undefined)
Output: > 100 µM (inactive)

Input: How about COc1ccc(C2C(Cl)C(=O)N2NC(=O)Cc2ccccc2)cc1 (centres undefined) ?
Output: > 100 µM (inactive)
